Origin of the recorded values: patent US6653478B2

- Measured target: human V1a receptor (Homo sapiens)
- Sequence (P37288 whole entry): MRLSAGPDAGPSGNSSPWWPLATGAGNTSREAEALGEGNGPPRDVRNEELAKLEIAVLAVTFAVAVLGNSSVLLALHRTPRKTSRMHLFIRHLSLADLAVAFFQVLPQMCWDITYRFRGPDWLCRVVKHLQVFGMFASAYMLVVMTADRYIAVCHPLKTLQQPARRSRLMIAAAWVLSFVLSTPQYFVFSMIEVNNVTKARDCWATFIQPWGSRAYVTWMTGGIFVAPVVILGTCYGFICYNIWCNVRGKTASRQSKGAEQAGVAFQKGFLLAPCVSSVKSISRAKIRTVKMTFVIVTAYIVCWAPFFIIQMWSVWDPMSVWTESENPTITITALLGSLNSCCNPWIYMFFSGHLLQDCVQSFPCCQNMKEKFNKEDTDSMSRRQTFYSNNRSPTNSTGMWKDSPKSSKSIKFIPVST
- Assay details: V1a binding assay (3H-AVP displacement, HEK-293 membranes)
- Design: expressed in transfected cells; host or cells: HEK-293 (membranes)
# pIC50 per entry
Would you please state pIC50, meaning minus log10 of the concentration in mol/L, as a bare number?

Reference set (4 entries):
> print(dat)
                                   molecule  numeric.result
1  CCOC(=O)C1CCN(CCCn2c(=O)n(C3CCN(C(=S)NC(c4ccccc4)c4ccccc4)CC3)c3ccccc32)CC1            7.36
2  CN1CCCC1CCn1c(=O)n(C2CCN(C(=S)NC(c3ccccc3)c3ccccc3)CC2)c2ccccc21 (stereo not shown)            7.31
3  O=c1n(CCCN2CC=CCC2)c2ccccc2n1C1CCN(C(=S)NC(c2ccccc2)c2ccccc2)CC1            7.39
4  CN(C)CCCn1c(=O)n(C2CCN(C(=S)NC(c3ccccc3)c3ccccc3)CC2)c2ccccc21            7.54

Ask: Return reported pIC50; argument: `O=c1n(CCCN2CCCCCCC2)c2ccccc2n1C1CCN(C(=S)NC(c2ccccc2)c2ccccc2)CC1`
Reply: 7.17

Ask: Same question, `O=c1n(CCCN2CCCCC2)c2ccccc2n1C1CCN(C(=S)Nc2ccc3c(c2)OCO3)CC1` this time
Reply: 6.35

Ask: Same question, COC(=O)C(Cc1ccccc1)NC(=S)N1CCC(n2c(=O)n(CCCNC(=O)OCc3ccccc3)c3ccccc32)CC1 (stereo not shown) this time
Reply: 6.24

---

- Measured target: UniProtKB P37288
- Assay details: V1a binding assay (3H-AVP displacement, HEK-293 membranes)
- Design: expressed in transfected cells; host or cells: HEK-293 (membranes)
# strict inequality: IC50 < 100 nM yields Met, everything else yields Not met

Previously resolved entries follow.
> print(dat)
                                   compound  class.assignment
1  CC1CC(C)CN(CCCn2c(=O)n(C3CCN(C(=S)NC(c4ccccc4)c4ccccc4)CC3)c3ccccc32)C1 (stereo not shown) [Compound 82]               Met
2  COC(=O)C(Cc1ccccc1)NC(=S)N1CCC(n2c(=O)[nH]c3ccccc32)CC1 (stereo not shown) [Compound 40]           Not met
3  O=c1n(CCCCN2CCCCC2)c2ccccc2n1C1CCN(C(=S)NC(c2ccccc2)c2ccccc2)CC1 [Compound 107]               Met
4  NCCCCn1c(=O)n(C2CCN(C(=S)NC(c3ccccc3)c3ccc(Cl)cc3)CC2)c2ccccc21 (stereo not shown) [Compound 65]               Met
5  COC(=O)C(Cc1ccccc1)NC(=S)N1CCC(n2c(=O)n(CCCN3C(=O)c4ccccc4C3=O)c3ccccc32)CC1 (stereo not shown) [Compound 56]           Not met

Ask: Would you kindly verify if IC50 of O=c1n(CCCN2CCCCC2)c2ccccc2n1C1CCN(C(=S)NCc2cccc3ccccc23)CC1 [Compound 112] is strictly less than 100 nM?
Reply: Not met

Ask: Same question, O=C(NC(c1ccccc1)c1ccccc1)N1CCC(n2c(=O)n(CCCN3CCOCC3)c3ccccc32)CC1 [Compound 95] this time
Reply: Not met
